- SYSTEM: recombinant human Lp-PLA2 (Homo sapiens)
- ASSAY INFO: Recombinant human Lp-PLA2 assay (rhLp-PLA2, PED6 assay)
- Format: biochemical
- RUN PARAMETERS: lower bounds; read-out: pIC50 values in the PED6 assay (converted)
QUANTITY: IC50

Take a look at these entries with their results.
{"COMPOUND": "C[C@H]1Cn2c(cc(OCc3ccc(Oc4ccc(F)cc4)c(F)c3)nc2=O)N1", "QUANTITY": "IC50", "OBSERVED": "≤ 10 nM"}
{"COMPOUND": "CN1c2cc(OCc3cc(F)c(Oc4ccc(C(F)(F)F)nc4)c(F)c3)nc(=O)n2CC1(C)C", "QUANTITY": "IC50", "OBSERVED": "≤ 1 nM"}
{"COMPOUND": "C[C@H]1Cn2c(cc(OCc3ccc(F)c(F)c3)nc2=O)N1", "QUANTITY": "IC50", "OBSERVED": "≤ 10 nM"}

Exam item: Check the records and state IC50 for CN1c2cc(OCc3ccc(Oc4ccnc(F)c4)c(F)c3)nc(=O)n2CC1(C)C
Marked response: ≤ 1 nM

Exam item: Provide one value: measured IC50 of C[C@H]1Cn2c(cc(OCc3ccc(Oc4cncc(C(F)(F)F)c4)c(C#N)c3)nc2=O)N1C
Marked response: ≤ 1 nM

Exam item: Item CC1(C)Cn2c(cc(OCc3ccc(Oc4ccc(F)nc4)c(F)c3)nc2=O)N1 : provide IC50
Marked response: ≤ 1 nM

Exam item: Input O=c1nc(OCc2ccc(Oc3ccc(Cl)c(C(F)(F)F)c3)cc2)cc2n1CCN2C1CC1 , output reported IC50.
Marked response: ≤ 10 nM

Exam item: Assign IC50 to the following record: [2H]C([2H])([2H])N1c2cc(OCc3cccc(F)c3F)nc(=O)n2CC1(C)C
Marked response: ≤ 10 nM

----------
Known IC50 of a selection of compounds
- SYSTEM: recombinant human Lp-PLA2 (Homo sapiens)
- Sequence (Q13093 22-441): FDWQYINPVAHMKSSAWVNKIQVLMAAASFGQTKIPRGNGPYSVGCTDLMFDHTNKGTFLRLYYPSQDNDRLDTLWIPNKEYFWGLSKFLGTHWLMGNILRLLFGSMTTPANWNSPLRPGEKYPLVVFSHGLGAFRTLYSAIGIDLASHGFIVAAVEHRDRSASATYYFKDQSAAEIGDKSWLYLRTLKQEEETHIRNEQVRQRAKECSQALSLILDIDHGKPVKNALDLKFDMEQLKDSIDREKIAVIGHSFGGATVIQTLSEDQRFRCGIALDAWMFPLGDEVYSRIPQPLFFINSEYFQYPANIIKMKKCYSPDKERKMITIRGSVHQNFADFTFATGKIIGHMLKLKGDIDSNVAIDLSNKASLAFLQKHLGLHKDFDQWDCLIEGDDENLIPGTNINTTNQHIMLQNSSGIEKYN
- ASSAY INFO: Recombinant human Lp-PLA2 assay (rhLp-PLA2, PED6 assay)
- Assay type: biochemical
- RUN PARAMETERS: lower bounds; read-out: pIC50 values in the PED6 assay (converted)

Example results:
{"COMPOUND": "C[C@@H]1Cn2c(cc(OCc3ccc(Oc4cncc(C(F)(F)F)c4)c(C#N)c3)nc2=O)N1C [Example E123]", "SYSTEM": "recombinant human Lp-PLA2 (Homo sapiens)", "QUANTITY": "IC50", "OBSERVED": "≤ 1 nM"}
{"COMPOUND": "C[C@H]1Cn2c(cc(OCc3cc(F)c(Oc4ccc(C(F)(F)F)nc4)c(F)c3)nc2=O)N1 [Example E16]", "SYSTEM": "recombinant human Lp-PLA2 (Homo sapiens)", "QUANTITY": "IC50", "OBSERVED": "≤ 1 nM"}

Now consider the entry below.
Exam item: Read the entry [2H]C([2H])(Oc1cc2n(c(=O)n1)CC(C)(C)N2C)c1cc(F)cc(F)c1 [Example E93] and write its reported IC50.
Marked response: ≤ 10 nM

These entries and their values trace back to patent US9051325B2.
